Field: TGI. Provide a value for each of the molecules that follow.
tested on: LOX IMVI; experiment: Growth inhibition of human LOX IMVI cells incubated for 48 hrs by sulforhodamine B assay; assay type: functional

Q) Look up TGI with LOX IMVI for this molecule: CCc1cccc(C)c1NC(=O)c1sc2nc3c(cc2c1N)C(=O)CCC3
A) > 100 µM

Q) Look up TGI with LOX IMVI for this molecule: Nc1c(C(=O)Nc2ccccc2)sc2nc3c(cc12)CN(Cc1ccccc1)CC3
A) > 100 µM

Q) Look up TGI with LOX IMVI for this molecule: Cc1cc(C)c(NC(=O)c2sc3nc4c(cc3c2N)CN(Cc2ccccc2)CC4)c(C)c1
A) 18.1 µM

Q) Look up TGI with LOX IMVI for this molecule: Cc1ccc(NC(=O)c2sc3nc4c(cc3c2N)C(=O)CCC4)cc1C
A) > 100 µM

Q) Look up TGI with LOX IMVI for this molecule: COc1cccc(NC(=O)c2sc3nc4c(cc3c2N)CN(Cc2ccccc2)CC4)c1
A) 43.5 µM

Q) Look up TGI with LOX IMVI for this molecule: Cc1cccc(NC(=O)c2sc3nc4c(cc3c2N)C(=O)CCC4)c1
A) ≥ 100 µM

Q) Look up TGI with LOX IMVI for this molecule: CN1CCc2nc3sc(C(N)=O)c(N)c3c(-c3cccs3)c2C1
A) > 100 µM

Q) Look up TGI with LOX IMVI for this molecule: CCc1ccccc1NC(=O)c1sc2nc3c(cc2c1N)C(=O)CCC3
A) > 100 µM

###

test system: HCT-116; test: Growth inhibition of human HCT-116 cells assessed as cell growth at 10 uM incubated for 48 hrs by sulforhodamine B assay relative to control; type: functional; details: read-out: Activity
endpoint-label: growth at 10 µM (%)
# unit: % | format: bare number

Q) Look up growth at 10 µM with HCT-116 for this compound: Nc1c(C(=O)Nc2ccccc2)sc2nc3c(cc12)CN(Cc1ccccc1)CC3
A) 51

Q) Look up growth at 10 µM with HCT-116 for this compound: CCc1cccc(C)c1NC(=O)c1sc2nc3c(cc2c1N)C(=O)CCC3
A) 17

Q) Look up growth at 10 µM with HCT-116 for this compound: COc1ccc(-c2ccn(S(=O)(=O)c3ccc(OC)cc3)n2)cc1
A) 60.3

Q) Look up growth at 10 µM with HCT-116 for this compound: COc1cccc(NC(=O)c2sc3nc4c(cc3c2N)CN(Cc2ccccc2)CC4)c1
A) 23

Q) Look up growth at 10 µM with HCT-116 for this compound: CCOc1ccc(-c2cc(N)n(S(=O)(=O)c3ccc(OC)cc3)n2)cc1
A) 96

Q) Look up growth at 10 µM with HCT-116 for this compound: CC(=O)c1cccc(NC(=O)c2sc3nc4c(cc3c2N)C(=O)CCC4)c1
A) 108

Q) Look up growth at 10 µM with HCT-116 for this compound: CC1(C)CCc2cc(-c3ccn(S(=O)(=O)c4ccc(C(F)(F)F)cc4)n3)ccc2O1
A) 80.6

Q) Look up growth at 10 µM with HCT-116 for this compound: Cc1cccc(NC(=O)c2sc3nc4c(cc3c2N)C(=O)CCC4)c1
A) 20

Q) Look up growth at 10 µM with HCT-116 for this compound: CC1(C)CCc2cc(-c3ccn(S(=O)(=O)c4ccc(Cl)cc4Cl)n3)ccc2O1
A) 73.6

Q) Look up growth at 10 µM with HCT-116 for this compound: Cc1cc(C)cc(S(=O)(=O)n2ccc(-c3ccc4c(c3)CCC(C)(C)O4)n2)c1
A) 77.8
